Test system: CEM cells HIV-1 protection, formazan growth assay
Test: NCI AIDS Antiviral Assay
Conditions: measured here: growth of uninfected CEM cells
Listed here: items and their measured IC50.

# compound-structure, assay-target, comparative-sign, IC50 (µM)
rows = [
    ("[N-]=[N+]=Nc1c(Cc2ccccc2)c(=O)oc2ccccc12", "CEM cells HIV-1 protection, formazan growth assay", "=", 32.4),
    ("O=[N+]([O-])c1cccc(N=Cc2ccccc2O)c1", "CEM cells HIV-1 protection, formazan growth assay", "=", 91.2),
    ("N#Cc1c(-c2ccc(Cl)c(Cl)c2)c(-c2ccc(Cl)c(Cl)c2)nn(CCO)c1=O", "CEM cells HIV-1 protection, formazan growth assay", "=", 0.759),
    ("COc1cc(OC)c(/C=N\\Nc2nc3ccccc3c(=O)n2-c2ccccc2)c(OC)c1", "CEM cells HIV-1 protection, formazan growth assay", "=", 37.2),
    ("Cc1cc(S(=O)(=O)Nc2cc(N)[nH]n2)c(SCc2nc(N)nc(N(C)C)n2)cc1Cl", "CEM cells HIV-1 protection, formazan growth assay", ">", 200),
]

* * *

Test system: CEM cells HIV-1 protection, formazan growth assay
Experiment: NCI AIDS Antiviral Assay
Listed here: items and their measured EC50.
quantity-kind: EC50

# compound, observed-measurement
data = [
    ("CC1CNC(c2ccc(NC(=O)Nc3cc(C(=O)Nc4ccc(C5=NC(C)CN5)cc4)ccc3C(=O)Nc3ccc(C4=NC(C)CN4)cc3)cc2)=N1 (centres undefined)", "> 100 µM"),
    ("CN(C)c1nc2n(CCO)c(-c3ccccc3)c(-c3ccccc3)nc-2c(=O)n1", "30.9 µM"),
    ("NC(=O)c1ccc2c(c1)-c1nc-2nc2[n-]c(nc3nc(nc4[n-]c(n1)c1ccc(C(N)=O)cc41)-c1ccc(C(N)=O)cc1-3)c1ccc(C(N)=O)cc21.[Co+2]", "> 9.77 µM"),
    ("Oc1ccccc1C1SCc2nc3ccccc3n21 (centres undefined)", "> 26.9 µM"),
    ("N#Cc1c(C#N)c(-c2ccco2)n(-c2ccccc2)c1N", "> 200 µM"),
    ("CCOC(=O)c1ncn(CCc2ccc(Cl)cc2)c1C", "> 200 µM"),
    ("CC(=O)/C=c1\\[nH]/c(=C\\C=C\\c2ccccc2)c(=O)n1/C=C1\\C(=O)Oc2ccccc2C1=O", "> 200 µM"),
    ("COc1ccc(/C=N/NC(=O)c2ccc(O)c(CN(C)C)c2)cc1", "> 200 µM"),
    ("CCOC(=O)Nn1c(CC#N)nnc1Cc1ccccc1", "> 200 µM"),
]

* * *

Test system: CEM cells HIV-1 protection, formazan growth assay
Assay: NCI AIDS Antiviral Assay;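 active = compounds giving half or more protection of infected cells from virus-caused growth loss, again on retest; inactive = the rest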
Outcomes: active, inactive

# molecule, category
measured = [
    ("O=C(/C=C/c1ccc(O)c(O)c1)OC(Cc1ccc(O)c(O)c1)C(=O)O (configuration not stated)", "inactive"),
    ("c1ccc(CN2CCCCC(Sc3ccccc3)CC2)cc1 (configuration not stated)", "inactive"),
    ("O=c1c(Cl)nsnc1Cl", "inactive"),
    ("CC1(CO)OC(n2cnc3cncnc32)CC1O (configuration not stated)", "active"),
    ("CCOC(=O)c1c(-c2ccc(OC)cc2)ccn1C", "inactive"),
    ("C/C(=C1/N=C(c2cc([N+](=O)[O-])ccc2Cl)N(c2ccc(Br)cc2)C1=O)c1cc2ccccc2oc1=O", "inactive"),
    ("CS(=O)(=O)c1nc(N)nc2nc[nH]c12", "inactive"),
    ("S=C(NCCc1ccccn1)N/N=C/c1ccccn1", "inactive"),
    ("CCOC(=O)CNc1c(OCc2ccccc2)c(=O)c1=O", "inactive"),
    ("CN(C)C[C@H]1C2C=CC(C2)[C@@H]1CO (some centres not stated)", "inactive"),
    ("CC(O)C1CC1(CO)CNc1cc(Cl)nc(N)n1 (configuration not stated)", "inactive"),
    ("C[N+]12CC3C(O)CC1CCC32 (configuration not stated)", "inactive"),
]

* * *

Test system: CEM cells HIV-1 protection, formazan growth assay
Experiment: NCI AIDS Antiviral Assay;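 active = compounds giving half or more protection of infected cells from virus-caused growth loss, again on retest; inactive = the rest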
Outcomes: active, inactive

# compound, category
records = [
    ("N#CN=C(N)c1sc2nc3c(c(-c4ccc(Br)cc4)c2c1N)CCCC3", "inactive"),
    ("FC1(F)[Se]C2C3CCC(C3)C2C1(F)F (stereo not drawn)", "inactive"),
    ("CC1=NN(C(=O)CC(=O)Nc2ccc(C)cc2)C(=O)C1N=Nc1ccc(S(=O)(=O)c2ccc(N=NC3C(=O)N(C(=O)CC(=O)Nc4ccc(C)cc4)N=C3C)cc2)cc1 (stereo not drawn)", "inactive"),
    ("CN(CC(=O)Nc1ccccc1C(=O)O)c1ccccc1", "inactive"),
    ("CCOC(=O)C(Cl)C1(O)Cc2cccc3cccc1c23 (stereo not drawn)", "inactive"),
    ("COc1ccc(/C=C2\\C(=O)N(C(=O)Cc3ccccc3)N=C2C)cc1OC", "inactive"),
    ("O=C1C2CC[C@@H]3C(=O)C(Cl)(Cl)[C@@H]3CCC2C1(Cl)Cl (stereo partly drawn)", "inactive"),
    ("O=c1cc(NNc2cccc(F)c2)[nH]c(=S)[nH]1", "inactive"),
    ("CCOP(=O)(CP(=O)(OCC)OCC)OCC.[Cl][Sn]([Cl])([c]1ccccc1)[c]1ccccc1", "inactive"),
    ("CCOC(=O)/C(=C(\\C)N)C1CC(=O)NC1=O (stereo not drawn)", "inactive"),
    ("CCc1ccccc1NC(=O)CCc1nc(=S)[nH][nH]1", "inactive"),
    ("CCOC(=O)C(C)S(=O)(=O)O (stereo not drawn)", "inactive"),
    ("C#CCN(N=O)C(=O)NCCCCC(NC(C)=O)C(=O)NCc1ccccc1 (stereo not drawn)", "inactive"),
    ("CCOC(=O)C1=CNc2ccccc2N=C1N", "inactive"),
    ("COc1ccc2c(c1)[n+](=O)c(C(=O)C/C(=N\\NC(=O)C[N+](C)(C)C)C(=O)Nc1cc(Cl)ccc1Cl)c(C)n2O", "inactive"),
    ("CCSCCCCCCCCCCC(=O)OCC1OC(n2cc(C)c(=O)[nH]c2=O)CC1F (stereo not drawn)", "active"),
    ("COC(=O)[C@H]1[C@H]2C[C@@H]3c4[nH]c5cccc(OC)c5c4CCN3C[C@H]2CC[C@H]1O", "inactive"),
    ("CC(C)(C)C1CCC2c3c([nH]c4ccccc34)C3C(=O)N(c4cccc(Cl)c4)C(=O)C3C2C1 (stereo not drawn)", "inactive"),
    ("CCOC(=O)C1C(=O)CC(C)(O)C(C(=O)OCC)C1c1ccc(OC)cc1 (stereo not drawn)", "inactive"),
    ("CN(C)CCNc1c2ccccc2nc2cccc([N+](=O)[O-])c12", "inactive"),
    ("COC(=O)CCCC=C(c1cc(Cl)c(OC)c(C(=O)OC)c1)c1cc(Cl)c(OC)c(C(=O)OC)c1", "active"),
    ("C[CH2][Sn]([CH2]C)([S]CCS(=O)(=O)O)[S]CCS(=O)(=O)O", "inactive"),
    ("CSc1n[nH]c2n[nH]c(C)c12", "inactive"),
    ("O=C1CC2(CCCC2)C(=O)N1c1cccc([N+](=O)[O-])c1", "inactive"),
    ("Oc1ccc2c(c1)-c1c(c3ccccc3n1CCN1CCOCC1)CC2", "inactive"),
    ("COc1cc(CNc2ccc(SC)cc2)cc(OC)c1OC", "inactive"),
    ("COC1CCC(=O)N1CCn1c(SCc2ccccc2)nc2ccccc21 (stereo not drawn)", "inactive"),
    ("O=C1CCC/C1=C1/SS/C(=C2/CCCC2=O)S1", "inactive"),
    ("C=CCOC1=C(OC(C)=O)C(=O)OC1C1COC(C)(C)O1 (stereo not drawn)", "inactive"),
    ("C=C1C(=O)C23C(O)C1CC[C@H]2C12CCCC(C)(C)[C@H]1[C@H](O)[C@]3(O)OC2 (stereo partly drawn)", "inactive"),
    ("CCCCNC(=O)C1=C(C)NC(C)=C(C(=O)NCCCC)C1", "inactive"),
    ("CCN(CC)CC1CCCCN1CC(=O)N1c2ccccc2NC(=O)CC1C (stereo not drawn)", "active"),
    ("CC(=O)/C(=C/c1cccc(Br)c1)C(=O)c1ccccc1", "inactive"),
    ("FC(F)(F)c1ccc2c(-c3cc[nH]c3)ccnc2c1", "inactive"),
    ("CC(=O)Nc1ccc(NS(=O)(=O)c2ccc3nc(C)n(NS(=O)(=O)c4ccc(NC(C)=O)cc4)c(=O)c3c2)cc1", "inactive"),
    ("CCOC(=O)C(NC(=O)c1[nH]cnc1/N=N/N(C)C)C(C)C (stereo not drawn)", "inactive"),
    ("O=C1[C@@H]2C(c3ccc(Br)cc3)=NO[C@@H]2C(=O)N1c1ccc(Cc2ccc(N3C(=O)[C@H]4C(c5ccc(Br)cc5)=NO[C@H]4C3=O)cc2)cc1", "inactive"),
    ("COc1c(OCc2ccccc2)c(OCc2ccccc2)cc(CO)c1-c1c(CO)cc(OCc2ccccc2)c(OCc2ccccc2)c1OC", "inactive"),
    ("CC/C(Cl)=N\\OC(=O)Nc1ccccc1OC(F)(F)F", "inactive"),
    ("O=S(=O)(c1ccccc1)C1CC(c2ccccc2)N(c2ccccc2)O1 (stereo not drawn)", "inactive"),
    ("CN=C1Nc2ccccc2C(=O)N2CSCC12 (stereo not drawn)", "inactive"),
    ("BrCc1ccccc1C[P+](c1ccccc1)(c1ccccc1)c1ccccc1", "inactive"),
    ("CC(=O)N/C(=C\\C=C\\CC=O)SC12CC3CC(CC(C3)C1)C2", "inactive"),
]
